Listed here: items and their measured TGI.
# Test system: DMS 273 small cell lung
# methodDescription: NCI tumour cell line growth inhibition, 48 h

(Q) Fill in TGI for record COC(=O)C(C(=O)C(=O)Nc1ccc([N+](=O)[O-])cc1)c1nc2ccc([N+](=O)[O-])cc2[nH]c1=O (stereo not drawn)
(A) > 100 µM

(Q) Fill in TGI for record CC1=C(CC2C(=O)N(c3ccccc3)S(=O)(=O)NC2C)C(=O)N(c2ccccc2)S(=O)(=O)N1C (stereo not drawn)
(A) > 100 µM

(Q) Fill in TGI for record "O=Cc1ccc2c(c1I)OCO2"
(A) > 100 µM

----------
Listed here: items and their measured log10(TGI).
# Tested on: UACC-62 melanoma
# methodDescription: NCI tumour cell line growth inhibition, 48 h
Each number you see is log10 of TGI, and the unit inside the log is µM.

Study these solved cases before continuing.
INSERT INTO measurements (molecule, assayvalue) VALUES
  ('COc1cc(Oc2nc3ccc(C(F)(F)F)cc3nc2-c2ccccc2)cc(OC)c1OC', 1.50),
  ('COc1ccc(/C=C(\C)[N+](=O)[O-])cc1OC', 0.59),
  ('CN(CCCNC(=O)c1cc(-c2ccccc2)nc2ccccc12)CCCNC(=O)c1cc(-c2ccccc2)nc2ccccc12', 0.63),
  ('Oc1cc(-n2cccn2)c(O)cc1-n1cccn1', 1.85),
  ('CCC1C(c2ccccc2O)c2cc3c(cc2OC1N1CCOCC1)OCO3 (stereo not drawn)', 1.43),
  ('N/C(=N\OC(=O)c1ccccc1)C(Cc1ccccc1)C(=O)NOC(=O)c1ccccc1 (stereo not drawn)', 0.88);

Now look at this one.
(Q) Fill in log10(TGI) for record "CN=C(Nc1cccc(C(F)(F)F)c1)SCc1ccc(N=C=S)cc1"
(A) 1.39
